test: CellTiter-Glo Luminescent Cytotoxicity Assay; type: cell-based; conditions: human, MT-4 cells (MT4 lymphocytes)
measured quantity: CC50 at 3 days

## Input I am curious: what CC50 at 3 days value has been reported for CC(=O)O[C@H]1[C@@H](OC(C)=O)[C@@]2(C)C3CCC4C(C)(C)[C@@H](OC(=O)CC(C)(C)C(=O)OCc5ccccc5)CC[C@@]45C[C@@]35CC[C@@]23CO[C@@]2(C(C)(C)O)CC[C@](C)(O2)[C@@H]13 (stereo partly shown) ?
## Output > 20 µM
